- Tested on: 945468-187-T-J2-PDC spheroids viability
- PROTOCOL_TEXT: Anticancer human tumor 945468-187-T-J2-PDC patient-derived rectal carcinoma cell line growth inhibition [PI3K]
- CONDITIONS: curve of first compound; second compound 0.00316 µM; spheroids with HUVEC and MSC
pIC50: −log10 of the molar value.
OUTCOME_MEASURE: pIC50

Worked examples follow.
[
  {
    "COMPOUND": "CCN1CCN(Cc2ccc(Nc3ncc(F)c(-c4cc(F)c5nc(C)n(C(C)C)c5c4)n3)nc2)CC1 + COc1c(OCCCN2CCOCC2)ccc2c3n(c(=NC(=O)c4cnc(N)nc4)nc12)CCN3",
    "pIC50": "< 6.00"
  },
  {
    "COMPOUND": "CC(C)NCC(C(=O)N1CCN(c2ncnc3c2C(C)CC3O)CC1)c1ccc(Cl)cc1 (configuration not stated) + CC(Nc1ccc2c(c1)OCCn1cc(N3C(=O)OCC3C(F)F)nc1-2)C(N)=O",
    "pIC50": "< 5.00"
  },
  {
    "COMPOUND": "CC1(C)CCC(CN2CCN(c3ccc(C(=O)NS(=O)(=O)c4ccc(NCC5CCOCC5)c([N+](=O)[O-])c4)c(Oc4cnc5[nH]ccc5c4)c3)CC2)=C(c2ccc(Cl)cc2)C1 + COc1c(OCCCN2CCOCC2)ccc2c3n(c(=NC(=O)c4cnc(N)nc4)nc12)CCN3",
    "pIC50": "< 5.00"
  },
  {
    "COMPOUND": "Cn1ncnc1[C@H]1c2n[nH]c(=O)c3cc(F)cc(c23)N[C@@H]1c1ccc(F)cc1 + CC(Nc1ccc2c(c1)OCCn1cc(N3C(=O)OCC3C(F)F)nc1-2)C(N)=O",
    "pIC50": "< 7.00"
  }
]

(Q) Which pIC50 is reported with 945468-187-T-J2-PDC spheroids viability for this entry: CC(C)n1nc(-c2ccc3oc(N)nc3c2)c2c(N)ncnc21 + CC(Nc1ccc2c(c1)OCCn1cc(N3C(=O)OCC3C(F)F)nc1-2)C(N)=O ?
(A) < 7.00

(Q) Next entry: C#Cc1c(F)ccc2cc(O)cc(-c3ncc4c(N5CC6CCC(C5)N6)nc(OCC56CCCN5CC(F)C6)nc4c3F)c12 (configuration not stated) + CC(Nc1ccc2c(c1)OCCn1cc(N3C(=O)OCC3C(F)F)nc1-2)C(N)=O
(A) < 5.00

(Q) // same read-out, input: Cn1ncnc1[C@H]1c2n[nH]c(=O)c3cc(F)cc(c23)N[C@@H]1c1ccc(F)cc1 + COc1c(OCCCN2CCOCC2)ccc2c3n(c(=NC(=O)c4cnc(N)nc4)nc12)CCN3
(A) < 7.00

----------
- Tested on: 945468-187-T-J2-PDC spheroids viability
- PROTOCOL_TEXT: Anticancer human tumor 945468-187-T-J2-PDC cell line growth inhibition [PI3K];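 also: spheroids exposed to compounds for seven days before reading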
- CONDITIONS: second compound 0.01 µM; first compound 0.1 µM; stronger effect = lower value; spheroids with HUVEC and MSC
Overview of recorded viability, T/C for various compounds
Respond with the bare value in %.

(Q) State the recorded viability, T/C for this entry: Cn1nccc1Nc1nccc(-c2ccn(C(CO)c3ccc(Cl)c(F)c3)c(=O)c2)n1 (stereo not drawn) + CC(Nc1ccc2c(c1)OCCn1cc(N3C(=O)OCC3C(F)F)nc1-2)C(N)=O
(A) 109

(Q) CC1(C)CCC(CN2CCN(c3ccc(C(=O)NS(=O)(=O)c4ccc(NCC5CCOCC5)c([N+](=O)[O-])c4)c(Oc4cnc5[nH]ccc5c4)c3)CC2)=C(c2ccc(Cl)cc2)C1 + COc1c(OCCCN2CCOCC2)ccc2c3n(c(=NC(=O)c4cnc(N)nc4)nc12)CCN3 , same question.
(A) 100

(Q) Consider next the compound CCN1CCN(Cc2ccc(Nc3ncc(F)c(-c4cc(F)c5nc(C)n(C(C)C)c5c4)n3)nc2)CC1 + COc1c(OCCCN2CCOCC2)ccc2c3n(c(=NC(=O)c4cnc(N)nc4)nc12)CCN3 in the same way.
(A) 115

----------
- Test system: 945468-187-T-J2-PDC spheroids viability
- PROTOCOL_TEXT: Anticancer human tumor 945468-187-T-J2-PDC cell line growth inhibition [PI3K];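 also: spheroids exposed to compounds for seven days before reading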
- CONDITIONS: second compound 0.1 µM; first compound 1 µM; stronger effect = lower value; spheroids with HUVEC and MSC
- Text: Combinatorial screen of targeted agents with the PI3K inhibitors inavolisib, alpelisib, duvelisib, and copanlisib in multi-cell type tumor spheroids A high-throughput screen of multi-cell type tumor spheroids was designed to identify active combinations of targeted small molecules and PI3K pathway inhibitors. […] Compounds. […] If the clinical Cmax for an agent had not been determined, the highest concentration tested was 10 microM. […]
The following compounds are listed with their measured viability, T/C values.
The figure you give is taken to be in %; do not add the unit.

These recorded examples may help you get a feel for the data.
[
  {
    "COMPOUND": "CCN1CCN(Cc2ccc(Nc3ncc(F)c(-c4cc(F)c5nc(C)n(C(C)C)c5c4)n3)nc2)CC1 + Cc1nc(NC(=O)N2CCCC2C(N)=O)sc1-c1ccnc(C(C)(C)C(F)(F)F)c1",
    "STUDY_TARGET": "945468-187-T-J2-PDC spheroids viability",
    "UNITS_TEXT": "%",
    "viability, T/C": 76.2
  },
  {
    "COMPOUND": "CC1(C)CCC(CN2CCN(c3ccc(C(=O)NS(=O)(=O)c4ccc(NCC5CCOCC5)c([N+](=O)[O-])c4)c(Oc4cnc5[nH]ccc5c4)c3)CC2)=C(c2ccc(Cl)cc2)C1 + CC(Nc1ccc2c(c1)OCCn1cc(N3C(=O)OCC3C(F)F)nc1-2)C(N)=O",
    "STUDY_TARGET": "945468-187-T-J2-PDC spheroids viability",
    "UNITS_TEXT": "%",
    "viability, T/C": 92.5
  }
]

Now for another entry.
(Q) Item CC(C)NCC(C(=O)N1CCN(c2ncnc3c2C(C)CC3O)CC1)c1ccc(Cl)cc1 (stereo not drawn) + CC(Nc1ccc2c(c1)OCCn1cc(N3C(=O)OCC3C(F)F)nc1-2)C(N)=O with 945468-187-T-J2-PDC spheroids viability - viability, T/C?
(A) 81.3

----------
viability, T/C overview
- System: 945468-187-T-J2-PDC spheroids viability
- PROTOCOL_TEXT: Anticancer human tumor 945468-187-T-J2-PDC cell line growth inhibition [PI3K];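 also: spheroids exposed to compounds for seven days before reading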
- CONDITIONS: compound 0.00316 µM; stronger effect = lower value; spheroids with HUVEC and MSC
- From the text: Combinatorial screen of targeted agents with the PI3K inhibitors inavolisib, alpelisib, duvelisib, and copanlisib in multi-cell type tumor spheroids A high-throughput screen of multi-cell type tumor spheroids was designed to identify active combinations of targeted small molecules and PI3K pathway inhibitors. […] Compounds. […] If the clinical Cmax for an agent had not been determined, the highest concentration tested was 10 microM. […]

[
  {
    "COMPOUND_STRING": "CC(=O)c1c(C)c2cnc(Nc3ccc(N4CCNCC4)cn3)nc2n(C2CCCC2)c1=O",
    "STUDY_TARGET": "945468-187-T-J2-PDC spheroids viability",
    "viability, T/C": "90.6% [middle of 4 runs]"
  }
]

(Q) Suppose we examine the molecule Cn1ncnc1[C@H]1c2n[nH]c(=O)c3cc(F)cc(c23)N[C@@H]1c1ccc(F)cc1 ; what viability, T/C value has been reported?
(A) 93.9% [middle of 4 runs]

(Q) // query: COc1c(OCCCN2CCOCC2)ccc2c3n(c(=NC(=O)c4cnc(N)nc4)nc12)CCN3
(A) 102% [middle of 8 runs]

(Q) What about CCN1CCN(Cc2ccc(Nc3ncc(F)c(-c4cc(F)c5nc(C)n(C(C)C)c5c4)n3)nc2)CC1 ?
(A) 98.9% [middle of 4 runs]

----------
- System: 945468-187-T-J2-PDC spheroids viability
- PROTOCOL_TEXT: Anticancer human tumor 945468-187-T-J2-PDC cell line growth inhibition [PI3K];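 also: spheroids exposed to compounds for seven days before reading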
- CONDITIONS: second compound 0.0316 µM; first compound 1 µM; stronger effect = lower value; spheroids with HUVEC and MSC
- From the text: Combinatorial screen of targeted agents with the PI3K inhibitors inavolisib, alpelisib, duvelisib, and copanlisib in multi-cell type tumor spheroids A high-throughput screen of multi-cell type tumor spheroids was designed to identify active combinations of targeted small molecules and PI3K pathway inhibitors. […] Compounds. […] If the clinical Cmax for an agent had not been determined, the highest concentration tested was 10 microM. […]
OUTCOME_MEASURE: viability, T/C (%)
State just the number; it will be interpreted in %.

Look over these answered cases.
[
  {
    "COMPOUND": "CC(Cn1ccc(-c2ccc(C#N)c(Cl)c2)n1)NC(=O)c1cc(C(C)O)[nH]n1 (stereo unspecified) + COc1c(OCCCN2CCOCC2)ccc2c3n(c(=NC(=O)c4cnc(N)nc4)nc12)CCN3",
    "viability, T/C, %": 101
  },
  {
    "COMPOUND": "CC(C)NCC(C(=O)N1CCN(c2ncnc3c2C(C)CC3O)CC1)c1ccc(Cl)cc1 (stereo unspecified) + COc1c(OCCCN2CCOCC2)ccc2c3n(c(=NC(=O)c4cnc(N)nc4)nc12)CCN3",
    "viability, T/C, %": 103
  },
  {
    "COMPOUND": "Cn1ncc(Cl)c1-c1cc(C(=O)NC(CN)Cc2cccc(F)c2)sc1Cl (stereo unspecified) + CC(Nc1ccc2c(c1)OCCn1cc(N3C(=O)OCC3C(F)F)nc1-2)C(N)=O",
    "viability, T/C, %": 71.6
  },
  {
    "COMPOUND": "C#Cc1c(F)ccc2cc(O)cc(-c3ncc4c(N5CC6CCC(C5)N6)nc(OCC56CCCN5CC(F)C6)nc4c3F)c12 (stereo unspecified) + Cc1nc(NC(=O)N2CCCC2C(N)=O)sc1-c1ccnc(C(C)(C)C(F)(F)F)c1",
    "viability, T/C, %": 103
  },
  {
    "COMPOUND": "CC1(C)CCC(Nc2ncc(C(F)(F)F)c(-c3c[nH]c4c(P(C)(C)=O)c(C#N)ccc34)n2)CN1 (stereo unspecified) + CC(Nc1ncnc2nc[nH]c12)c1cc2cccc(Cl)c2c(=O)n1-c1ccccc1",
    "viability, T/C, %": 35
  }
]

(Q) Reported viability, T/C, compound CNC(=O)c1ccc(N2C(=S)N(c3ccc(C#N)c(C(F)(F)F)c3)C(=O)C2(C)C)cc1F + CC(Nc1ncnc2nc[nH]c12)c1cc2cccc(Cl)c2c(=O)n1-c1ccccc1 : ____
(A) 85.3

The measured values listed here are drawn from PubChem BioAssay AID1963972.
